# assaySystem: hFXR (Homo sapiens, UniProt Q96RI1)
# Sequence (Q96RI1 whole entry): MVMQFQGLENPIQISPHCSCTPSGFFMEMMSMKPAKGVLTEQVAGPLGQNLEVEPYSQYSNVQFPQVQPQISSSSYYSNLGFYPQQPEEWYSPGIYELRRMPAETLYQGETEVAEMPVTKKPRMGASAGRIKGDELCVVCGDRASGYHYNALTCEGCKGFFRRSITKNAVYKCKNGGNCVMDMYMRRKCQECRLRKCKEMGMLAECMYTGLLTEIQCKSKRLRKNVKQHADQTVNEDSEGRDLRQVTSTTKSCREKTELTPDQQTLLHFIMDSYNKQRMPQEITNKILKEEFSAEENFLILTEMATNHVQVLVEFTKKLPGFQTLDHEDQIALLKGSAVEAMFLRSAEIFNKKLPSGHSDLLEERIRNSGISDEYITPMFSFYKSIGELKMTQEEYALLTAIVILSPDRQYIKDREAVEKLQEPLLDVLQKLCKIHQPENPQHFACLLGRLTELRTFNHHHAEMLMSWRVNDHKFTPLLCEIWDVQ
# Sequence (P19793 whole entry partner): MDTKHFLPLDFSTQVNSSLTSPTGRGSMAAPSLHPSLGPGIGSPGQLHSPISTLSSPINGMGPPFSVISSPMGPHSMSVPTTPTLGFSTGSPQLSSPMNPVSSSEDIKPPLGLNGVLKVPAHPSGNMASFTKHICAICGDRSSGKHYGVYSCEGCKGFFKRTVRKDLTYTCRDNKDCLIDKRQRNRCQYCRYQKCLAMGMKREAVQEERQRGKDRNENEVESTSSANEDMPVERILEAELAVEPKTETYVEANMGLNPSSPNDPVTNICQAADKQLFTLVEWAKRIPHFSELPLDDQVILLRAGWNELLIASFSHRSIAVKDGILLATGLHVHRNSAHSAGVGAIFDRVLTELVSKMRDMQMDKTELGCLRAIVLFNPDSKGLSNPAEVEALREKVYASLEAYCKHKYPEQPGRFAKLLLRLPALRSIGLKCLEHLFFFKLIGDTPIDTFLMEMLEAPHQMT
# testMethodNotes: In Vitro FXR Assay (TK): TK-ECRE-luc reporter in transfected CV-1 cells
# conditionLabel: 18 hrs incubation, luminescence
# Protocol: Example B-1: In Vitro FXR Assay (TK) CV-1 cells were seeded at a density of 2,000,000 cells in a T175 flask with DMEM+10% charcoal double-stripped FBS and incubated at 37° C. in 5% CO2 for 18 h (O/N). After 18 h of incubation, the medium in the T175 flask was changed with fresh DMEM+10% charcoal super-stripped serum. […] Compounds were serially diluted in DMSO and added to transfected CV-1 cells. […] The next day cells were lysed and examined for luminescence.
experimentalReadout: EC50

Study these solved cases before continuing.
- compoundString: "COc1ccc(C23CCC(CN(c4cc(-c5cnn(C(C)C)c5)ncn4)C(=O)[C@H]4CC[C@H](OC(=O)N5CC(CS(C)(=O)=O)C5)CC4)(CC2)CC3)cc1C"
  result: "≤ 50 nM"
- compoundString: "COc1ccc([C@H]2CC[C@H](CN(c3cc(-c4coc(C(C)C)n4)ccn3)C(=O)[C@H]3CC[C@H](OC(=O)NC4COC4)CC3)CC2)cc1C"
  result: "≤ 50 nM"
- compoundString: "COCCN(C)C(=O)O[C@H]1CC[C@H](C(=O)N(CC23CCC(c4ccc(OC)c(C)c4)(CC2)CC3)c2cc(-c3cnn(C(C)C)c3)ccn2)CC1"
  result: "≤ 50 nM"
- compoundString: "COc1ccc([C@H]2CC[C@H](CN(c3cccc(-c4cnn(C(C)C)c4)c3)C(=O)[C@H]3CC[C@H](CNC(=O)OC(C)C)CC3)CC2)cc1C"
  result: "50 to 1000 nM"
- compoundString: "COc1ccc([C@H]2CC[C@H](CN(c3cc(-c4coc(C5CC5)n4)ccn3)C(=O)[C@H]3CC[C@H](OC(=O)NC(C)C)CC3)CC2)cc1C"
  result: "≤ 50 nM"

--- query ---
# input For the compound COc1ccc(C23CCC(CN(c4cc(-c5cnc(C6CC6)s5)ccn4)C(=O)[C@H]4CC[C@H](NC(C)=O)CC4)(CC2)CC3)cc1C , report EC50.
# output ≤ 50 nM
